Recorded values, source PubChem BioAssay (NCI).

experiment: NCI Yeast Anticancer Drug Screen. Data for the mlh1 rad18 strain (AID 175); conditions: S. cerevisiae mlh1 rad18 strain growth inhibition; at 50.0 µM; active compounds read high
The panel holds about 79,000 compounds, 15% with a hit somewhere; the sample as a whole holds those more often. The source made the active and inactive calls. Cut-off read from the data, not from the text of the source: active = growth inhibition above about 70%; inactive = the rest.
Readout Type: growth inhibition

>>> assay_value("COC(=O)c1ccc([N+](=O)[O-])cc1C(=O)OC")
"-3.2% (inactive)"
>>> assay_value("COc1cc2c(cc1OC)C(=O)CC2")
"0.15% (inactive)"
>>> assay_value("O=C1CC(C(F)(F)F)(C(F)(F)F)O1")
"-19% (inactive)"
>>> assay_value("CCC(CC(C)C)C(=O)OCCBr (stereo not drawn)")
"14.4% (inactive)"
>>> assay_value("CCCCN(CC)C(=O)C(=O)Cc1nc2ccc(C(=O)c3ccccc3)cc2[nH]c1=O")
"2.4% (inactive)"
>>> assay_value("CCOc1ccccc1N=Nc1c(C)nc(N)nc1OCC")
"14.9% (inactive)"
>>> assay_value("CC(=O)OC(=O)C(=O)C(F)C(O)C(C)C (stereo not drawn)")
"7.45% (inactive)"
>>> assay_value("CC(C)(C)[N]=[V]([Cl])([Cl])[Cl]")
"-10.1% (inactive)"

For COc1ccc(C(O)c2ccccc2C(=O)Nc2ccccc2)cc1 (stereo not drawn) the compound record lists growth inhibition as -3.9% (inactive)

// growth inhibition lookup, compound = CC(C)C1OC2OCCCC2C(C(C)C)O1 (stereo not drawn) , result: 11% (inactive)

Given item Cc1ncc([N+](=O)[O-])n1CCN(C)CCCCn1ccnc1[N+](=O)[O-] , the value recorded as its growth inhibition is -57.9% (inactive)

// growth inhibition lookup, compound = CSc1nc2cc(S(=O)(=O)N3CCCCC3)ccc2s1 , result: -7% (inactive)

Reported growth inhibition ( CCCCC1=CC1(C#N)[N+](=O)[O-] (stereo not drawn) ) = 27.8% (inactive)
